- tested_target: UniProt:O60725
- Sequence (O60725 whole entry): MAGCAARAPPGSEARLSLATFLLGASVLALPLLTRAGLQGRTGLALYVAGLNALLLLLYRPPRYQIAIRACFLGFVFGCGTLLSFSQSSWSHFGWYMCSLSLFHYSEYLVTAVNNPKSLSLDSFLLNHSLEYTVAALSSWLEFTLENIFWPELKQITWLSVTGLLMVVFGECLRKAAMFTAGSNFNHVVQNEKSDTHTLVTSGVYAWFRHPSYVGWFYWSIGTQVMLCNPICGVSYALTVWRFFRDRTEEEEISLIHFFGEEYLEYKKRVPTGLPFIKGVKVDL
- test: ICMT biochemical assay (Methyltransferase-Glo)
- test_conditions: ICMT membrane extract from Sf-9 cells; 30 min preincubation, 90 min reaction
pIC50: −log10 of the molar value.
Please mark Satisfied if the recorded pIC50 is equal to or greater than 7, and Not satisfied if it falls below.

(Q) Reported pIC50 at or above 7? Cc1cc(C#N)ccc1OC(C)COc1cccc(-c2ccnn2C)c1 (stereo not drawn)
(A) Satisfied

(Q) Reported pIC50 at or above 7? `Cc1nccn1-c1cc(OCCOc2ccc(Cl)cc2C#N)ccn1`
(A) Satisfied

(Q) Reported pIC50 at or above 7? `C#Cc1ccc(OCCOc2cccc(-n3ccnc3C)c2)c(F)c1`
(A) Satisfied

(Q) Reported pIC50 at or above 7? `Cc1nccn1-c1cccc(OCCOc2ccc(Cl)cc2)c1`
(A) Not satisfied

(Q) Reported pIC50 at or above 7? `Cc1nccn1-c1cc(OCCOc2ccc(Cl)cc2F)ccn1`
(A) Satisfied

(Q) Reported pIC50 at or above 7? `Cn1nccc1-c1cc(OCCOc2ccc(C#N)cc2)ccc1F`
(A) Satisfied

(Q) Reported pIC50 at or above 7? `Cc1nccn1-c1cccc(OCCOc2ccc(C#N)cc2C(F)(F)F)c1`
(A) Not satisfied

(Q) Reported pIC50 at or above 7? `Cn1nccc1-c1cccc(OCCOc2ccc(F)cc2C#N)c1`
(A) Satisfied

(Q) Reported pIC50 at or above 7? `Cc1nccn1-c1cccc(OC[C@H](C)Oc2ccc(C#N)cc2F)c1`
(A) Satisfied

(Q) Reported pIC50 at or above 7? `Cn1nccc1-c1cc(F)cc(OCCOc2ccc(C#N)cc2)c1`
(A) Satisfied

(Q) Reported pIC50 at or above 7? `Cn1nccc1-c1cc(OCCOc2ccc(C#N)cc2F)ccc1F`
(A) Satisfied

(Q) Reported pIC50 at or above 7? `Cc1ccc(OCCOc2cccc(-n3ccnc3C)c2)c(F)c1`
(A) Satisfied

(Q) Reported pIC50 at or above 7? `N#Cc1ccc(OCCOc2cccc(-c3cnoc3)c2)c(F)c1`
(A) Satisfied

(Q) Reported pIC50 at or above 7? `Cc1cc(C#N)ccc1O[C@H](C)COc1cccc(-c2ccnn2C)c1`
(A) Satisfied

(Q) Reported pIC50 at or above 7? `Cc1ccc(OCCOc2cccc(-n3ccnc3C)c2)c(C#N)c1`
(A) Satisfied

(Q) Reported pIC50 at or above 7? `Cc1cc(C#N)ccc1O[C@@H](C)COc1cccc(-c2ccnn2C)c1`
(A) Satisfied

(Q) Reported pIC50 at or above 7? `Cn1nccc1-c1cc(OCCOc2ccc(C#N)cc2Cl)ccn1`
(A) Satisfied

(Q) Reported pIC50 at or above 7? `N#Cc1ccc(OCCOc2cccc(-c3cncs3)c2)c(F)c1`
(A) Not satisfied

(Q) Reported pIC50 at or above 7? `Cc1nccn1-c1cccc(O[C@@H](C)COc2ccc(C#N)cc2Cl)c1`
(A) Satisfied

(Q) Reported pIC50 at or above 7? `Cc1nccn1-c1cccc(OCCOc2ccc(C#N)nn2)c1`
(A) Not satisfied

(Q) Reported pIC50 at or above 7? `N#Cc1ccc(OCCOc2cccc(-n3ccnc3C3CC3)c2)cc1`
(A) Satisfied

(Q) Reported pIC50 at or above 7? `Cc1nccn1-c1cccc(OC[C@@H](C)Oc2ccc(C#N)cc2Cl)c1`
(A) Satisfied

(Q) Reported pIC50 at or above 7? `Cn1nccc1-c1cc(OCCOc2ccc(C#N)cc2)ccn1`
(A) Satisfied

(Q) Reported pIC50 at or above 7? `Cc1nncn1-c1cc(OCCOc2ccc(C#N)cc2F)ccn1`
(A) Satisfied

(Q) Reported pIC50 at or above 7? `Cc1ccc(OCCOc2cccc(-c3ccnn3C)c2)c(C#N)c1`
(A) Satisfied

(Q) Reported pIC50 at or above 7? `Cc1nccn1-c1cccc(O[C@H](C)COc2ccc(C#N)cc2F)c1`
(A) Not satisfied

(Q) Reported pIC50 at or above 7? `N#Cc1ccc(OCCOc2cccc(-c3ccnn3C3CC3)c2)c(Cl)c1`
(A) Satisfied

(Q) Reported pIC50 at or above 7? `Cc1cc(F)ccc1OCCOc1cccc(-c2ccnn2C)c1`
(A) Not satisfied

(Q) Reported pIC50 at or above 7? `N#Cc1ccc(OCCOc2ccnc(-n3cnnn3)c2)c(F)c1`
(A) Satisfied
